# Tested on: UACC-62
# assay protocol: NCI tumour cell line growth inhibition, 48 h
Activity calls are given as the source filed them. Rule as the data show it: active = GI50 up to about 1.1 µM and inactive = higher. Residues, ends and D or L forms follow the SMILES beside them. *: point of attachment. Boc = CC(C)(C)OC(=O)*; Bz = O=C(c1ccccc1)*

compound	GI50
COC(=O)c1ccccc1CC1Cc2ccc3c(c2C1=O)CCC3 (centres undefined)	39.5 µM (inactive)
CN(O)C(=O)c1ccc(OCc2cccc(Cl)c2)cc1	15.4 µM (inactive)
O=C(/C=C/c1csc(-c2ccccc2)n1)NCc1ccc(C(=O)NCc2ccccc2)cc1	> 100 µM (inactive)
CC(NC(=O)C(Cc1ccc(OC(=O)c2ccccc2)cc1)NC(=O)OC(C)(C)C)C(=O)NC(Cc1ccccc1)C(=O)NCC(N)=O (centres undefined) (Boc-Y(Bz)AFG-NH2; configuration not given here)	18.8 µM (inactive)
C[C@@H](Br)[C@@H]1CC[C@H]2c3[nH]c4ccccc4c3CCN2C1	14.5 µM (inactive)
c1csc(-c2ccsc2-c2ccsc2)c1	> 100 µM (inactive)
Cc1nn(-c2nc3ccccc3s2)c2c1C(=O)c1ccccc1-2	> 100 µM (inactive)
COc1ccc(C2C(C=O)C(N3CCN(C)CC3)=Nc3nc4ccccc4n32)cc1 (centres undefined)	14.1 µM (inactive)
COc1ccc(/C=C/c2cc(OC)c(O[Si](C)(C)C(C)(C)C)c(OC)c2)cc1	75.2 µM (inactive)

###

# Tested on: HOP-92
# assay protocol: NCI tumour cell line growth inhibition, 48 h
The source made the active and inactive calls. Rule as the data show it: active = GI50 up to about 1.1 µM and inactive = higher.
Labels: 1 for active, 0 for inactive

molecule	answer label
S=C1SSC2N=CC=CC12 (configuration not stated)	0
COc1cc(NP(=O)(Oc2ccccc2)Oc2ccccc2)ccc1Nc1c2ccccc2nc2c1[nH]c1ccccc12	1
OC(Cc1ccccc1)(Cc1ccccc1)c1ccccc1	0
OCC(O)C(O)C(C=NNc1ncnc2ccc(Br)cc12)=NNc1ncnc2ccc(Br)cc12 (configuration not stated)	0
O=C(c1ccccc1)c1c(-c2ccccc2)n(-c2ccccc2)[nH]c(=O)c1=O	0
Cn1c2c3ccc(Cl)cc3nc-2c(Cl)c2ccccc21	0
O=C1c2ccccc2-c2nnc(-c3ccc(Cl)cc3)cc21	0
Cc1cccc(NC(=O)C(=O)Cc2nc3ccccc3nc2O)c1C	0
Cc1cc(C)nc(Nc2nc3cc([N+](=O)[O-])ccc3[nH]2)n1	0
Nc1nc2[nH]c(=O)cnc2c(=O)[nH]1	0
CCN(CC)C(=S)SNCCc1ccc(S(N)(=O)=O)cc1	0
CCOC(=O)C1=C(O)C2C3CC4C2C(O)=C(C(=O)OCC)C2C1C3C42 (configuration not stated)	0
Cc1ccc(/C=C2\CN(C)CC3C2=NC(=S)NC3c2ccc(C)cc2)cc1 (configuration not stated)	0
CC(Oc1ccccc1)C(=O)NNC(=O)OC(C)(C)C (configuration not stated)	0
O=C(Nc1ccccc1-c1n[nH]c(S)nc1=O)C(F)(F)F	0
COC(=O)c1ccccc1CC1Cc2ccc3c(c2C1=O)CCC3 (configuration not stated)	0
CC1=NN(C(=O)CC(=O)Nc2ccccc2Cl)C(=O)C1/N=N\c1ccc(S(=O)(=O)c2ccc(/N=N/C3C(=O)N(C(=O)CC(=O)Nc4ccccc4Cl)N=C3C)cc2)cc1 (configuration not stated)	0
O=C(CCC(=O)Nc1cccc(Cl)c1)CC(=O)c1ccc(Cl)cc1	0
Cc1nc(C)c(C(=O)NNC(=O)c2ccccc2)cc1C(=O)NNC(=O)c1ccccc1	0
Nc1ccc(Cn2ccc3c4c(N)nc(N)nc4ccc32)cc1	1
COc1cc2c(cc1C1COc3cc4occc4cc3C1=O)OCO2 (configuration not stated)	0
C[O+]=C1C=CC(=C2SC(c3ccccc3)(c3ccccc3)c3ccccc32)C=C1.[O-][Cl+3]([O-])([O-])[O-]	0
COc1cc([C@@H]2OC[C@@H]3C(c4cc(OC)c5c(c4)OCO5)OC[C@@H]32)cc(OC)c1OC (some centres not stated)	0
Oc1ccccc1/C=N/c1ccc(-c2nc3ccccc3s2)cc1	0
C=CC[C@H]1O[Si](C(C)(C)C)(C(C)(C)C)[C@H](C)[C@H]1C	0
O=c1c2ccccc2nc(-c2cccc(Cl)c2)n1NC1OC(CO)C(O)C(O)C1O (configuration not stated)	0
CN(C)CCCNc1c2ccccc2nc2cccc([N+](=O)[O-])c12	1
O=C1/C(=C/c2ccccc2)CN(C(=O)OCc2ccccc2)C/C1=C\c1ccccc1	0
CCOC(=O)N/N=C(\Cc1ccccc1)OCC	0
CN(O)C(=O)c1ccc(OCc2cccc(Cl)c2)cc1	0
NNC(=O)c1c(SCc2ccccc2)nc2c3ccccc3ccn12	0
CCCCCCCCCCCOC(=S)NC(C)C	0
COc1ccccc1CNCc1nc2ccccc2[nH]1	0
O=[N+]([O-])c1ccc(/C=C/c2ccc(/N=N/c3ccc(/C=C/c4ccc([N+](=O)[O-])cc4S(=O)(=O)O)c(S(=O)(=O)O)c3)cc2S(=O)(=O)O)c(S(=O)(=O)O)c1	0
CCOC(=O)c1nc2ccc(C(F)(F)F)cc2nc1Oc1ccc(F)cc1	0
CC(C)=CC1CC(=[N+]=[N-])C(=O)C1(C)C (configuration not stated)	0
CN(CCNC(=O)c1c[nH]c2c1Cc1ccccc1-2)CCNC(=O)c1c[nH]c2c1Cc1ccccc1-2	0
COC1CC(C)(N)C(O)C(C)O1 (configuration not stated)	0
COc1ccc2c(c1)CC[C@@H]1[C@@H]2CC[C@]2(C)/C(=N/OCCN3CCCCC3)CC[C@@H]12	0
O=C(/C=C/c1csc(-c2ccccc2)n1)NCc1ccc(C(=O)NCc2ccccc2)cc1	0
CCSC(=O)N1c2ccc(OC)cc2C=CC1C#N (configuration not stated)	1
NCCC1CN(C(=O)OCc2ccccc2)c2ccccc21 (configuration not stated)	0

###

# Test system: SK-MEL-28
# assay protocol: NCI tumour cell line growth inhibition, 48 h
The source made the active and inactive calls. Rule as the data show it: active = GI50 up to about 1.1 µM and inactive = higher.
A collection of compounds and their measured GI50
reported metric: GI50

>>> df
                                   compound               result
0  Brc1ccc2c([C@H]3CN[C@@H](c4c[nH]c5cc(Br)ccc45)CN3)c[nH]c2c1   14.2 µM (inactive)
1  CN1CCCC2[C@@H]3CCC4c5nonc5CC[C@]4(C)C3CC[C@@]21C (stereo not given in full)   37.6 µM (inactive)
2  Cc1cc(O)cc(O)c1/N=N/c1ccc([N+](=O)[O-])cc1   16.6 µM (inactive)
3  O=C1C=C(Nc2ccc(Cl)cc2C(=O)c2ccccc2)c2ccccc2C1=O  > 100 µM (inactive)
4  Cc1nc(-c2cc3c(ccc4ccccc43)oc2=O)cc2c1c(=O)oc1ccc3ccccc3c12  > 100 µM (inactive)
5  COC(=O)c1c(-c2ccccc2)cc2c3cc(-c4ccccc4)c(C(=O)OC)n3c3ccccc3n12  > 100 µM (inactive)
6  C[n+]1cn(-c2nc3ccccc3nc2[N-]S(=O)(=O)c2ccccc2)c2ccccc21  > 100 µM (inactive)
7  O=C1O/C(=C\C=C\CO)C=C1/C=C/CO [LISSOCLINOLIDE]   24.4 µM (inactive)
8    CC1(C)CC(=O)C(=CNC(=O)c2ccncc2)C(=O)C1  > 100 µM (inactive)
9  O=C1C(Cl)C(c2ccc(O)cc2)N1n1cnc2ccccc2c1=O (stereo not given)   26.7 µM (inactive)

###

# Test system: SR
# assay protocol: NCI tumour cell line growth inhibition, 48 h
The source made the active and inactive calls. Cut-off read from the data, not from the text of the source: active = GI50 up to about 1.1 µM and inactive = higher.
Labels: label 1 (active), label 0 (inactive)

In [3]: df
Out[3]:
                                   compound  answer_label
0  OCC(O)C(O)C(C=NNc1ncnc2ccc(Br)cc12)=NNc1ncnc2ccc(Br)cc12 (stereo not given)       label 1
1   N#Cc1cnc(-n2[nH]c3c(c2=O)CCCC3)[nH]c1=O       label 0
2                    O=c1nc2n(c3nsnc13)CCO2       label 0
3  COc1ccc(Br)c2c1CC(C(=O)O)CC2 (stereo not given)       label 0
4  COc1cc(NP(=O)(Oc2ccccc2)Oc2ccccc2)ccc1Nc1c2ccccc2nc2c1[nH]c1ccccc12       label 1

###

# Test system: SNB-78
# assay protocol: NCI tumour cell line growth inhibition, 48 h
The source made the active and inactive calls. Rule as the data show it: active = GI50 up to about 1.1 µM and inactive = higher.
Labels: Yes = active, No = inactive

In [3]: df
Out[3]:
                                    compound  target_or_test_system  answer_label
 0  CCOC(=O)[C@@]12C(C)=CC(=O)O[C@]1(C)C[C@H]2C#N                 SNB-78            No
 1  CN(C)CCCNc1c2ccccc2nc2cccc([N+](=O)[O-])c12                 SNB-78           Yes
 2           Cn1c(=O)c2ccccc2c2nc3ccccc3nc21                 SNB-78            No
 3  O=[N+]([O-])c1ccc(-c2ccc(-c3csc(Nc4ccccn4)n3)o2)cc1                 SNB-78            No
 4   Cc1cccc(NC(=O)C(=O)Cc2nc3ccccc3nc2O)c1C                 SNB-78            No
 5                   O=c1ccc2ccccc2c2ccccc12                 SNB-78            No
 6    O=C1c2ccccc2C(=O)c2c1oc1cc(O)c(Cl)cc21                 SNB-78            No
 7  COc1cccc(C2=NC(C(C)C)CO2)c1 (stereo unspecified)                 SNB-78            No
 8  O=C(c1ccccc1)c1nnn(Cc2cccc(Cl)c2)c1C(=O)c1ccccc1                 SNB-78            No
 9  CCOC(=O)C1C=C2O[C@@H]3OC4(CCCCC4)O[C@@H]3C2[C@H]2C(=O)C=CC(=O)[C@@]12C(=O)OC (stereo partly specified)                 SNB-78            No
10    O=C1c2ccccc2C(=O)c2sc(Nc3ccccc3Cl)nc21                 SNB-78            No
